target: T1, Munc18-1-His (rat, UniProt P61765 1-594); conditions: both partners purified
T1 construct: Munc18-1 (STXBP1); also called Munc18a; STXBP1; source: E. coli Rosetta BL21 (DE3), purified to homogeneity as described by Hu et al
T1 sequence (P61765 whole entry): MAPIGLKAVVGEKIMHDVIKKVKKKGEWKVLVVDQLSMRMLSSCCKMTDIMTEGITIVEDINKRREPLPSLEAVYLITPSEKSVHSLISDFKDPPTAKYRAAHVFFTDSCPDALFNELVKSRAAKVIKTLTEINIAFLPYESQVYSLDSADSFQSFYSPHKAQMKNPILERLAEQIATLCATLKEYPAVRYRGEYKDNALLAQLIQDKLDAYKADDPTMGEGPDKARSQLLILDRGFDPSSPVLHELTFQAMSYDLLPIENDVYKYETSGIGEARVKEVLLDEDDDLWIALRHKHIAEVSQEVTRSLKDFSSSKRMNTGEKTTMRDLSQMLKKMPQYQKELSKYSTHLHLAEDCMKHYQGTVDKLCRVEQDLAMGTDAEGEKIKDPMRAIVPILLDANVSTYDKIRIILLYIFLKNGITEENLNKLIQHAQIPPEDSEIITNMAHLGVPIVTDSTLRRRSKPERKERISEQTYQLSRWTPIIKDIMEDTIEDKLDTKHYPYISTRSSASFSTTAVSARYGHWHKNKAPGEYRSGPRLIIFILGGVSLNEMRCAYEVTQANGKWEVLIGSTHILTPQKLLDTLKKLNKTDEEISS
pKd: −log10 of the molar value.
The following binders are shown together with reported pKd values.

- Binder: "QEEDIDQIVAEVKQSMS (source: synthetic peptide, bought: Genscript) [Mint1_1c peptide (266-282)]"
  pKd: 4.64
- Binder: "MDSYEQEEDIDQIVAEVKQS (source: synthetic peptide, bought: Genscript) [Mint1_7 peptide (261-280)]"
  pKd: 4.72
- Binder: "SYEQEEDIDQIVAEVKQSMS (source: synthetic peptide, bought: Genscript) [Mint1_4 peptide (263-282)]"
  pKd: 4.89
- Binder: "PYPRMDEEEQEEDIDQIVAEVKQEMEEQEL (human Mint1 residues 257-286 with phosphomimetic Glu; source: synthetic peptide, bought: Genscript) [Mint1_3 peptide (257-286 phosphomimic)]"
  pKd: 4.85
- Binder: "EEDIDQIVAEVKQSMS (source: synthetic peptide, bought: Genscript) [Mint1_6 peptide (267-282)]"
  pKd: 5.40
- Binder: "PYPRMDSYEQEEDIDQIVAEVKQSMSSQSL (human Mint1 residues 257-286; source: synthetic peptide, bought: Genscript) [Mint1_2 peptide (257-286)]"
  pKd: 4.59
- Binder: "EQEEDIDQIVAEVKQSMS (source: synthetic peptide, bought: Genscript) [Mint1_5 peptide (265-282)]"
  pKd: 5.25

These data points were gathered from paper PMC10820826.
